tested-system: E25 (trkA), trkA receptor expressing fibroblast transfectants (Homo sapiens)
Construct: expressed in transfected cells; host or cells: NIH-3T3 mouse fibroblasts (E25), from Dr. Mariano Barbacid; Jing et al. 1992
Sequence (P04629 33-790 isoform P04629-2 limits assumed): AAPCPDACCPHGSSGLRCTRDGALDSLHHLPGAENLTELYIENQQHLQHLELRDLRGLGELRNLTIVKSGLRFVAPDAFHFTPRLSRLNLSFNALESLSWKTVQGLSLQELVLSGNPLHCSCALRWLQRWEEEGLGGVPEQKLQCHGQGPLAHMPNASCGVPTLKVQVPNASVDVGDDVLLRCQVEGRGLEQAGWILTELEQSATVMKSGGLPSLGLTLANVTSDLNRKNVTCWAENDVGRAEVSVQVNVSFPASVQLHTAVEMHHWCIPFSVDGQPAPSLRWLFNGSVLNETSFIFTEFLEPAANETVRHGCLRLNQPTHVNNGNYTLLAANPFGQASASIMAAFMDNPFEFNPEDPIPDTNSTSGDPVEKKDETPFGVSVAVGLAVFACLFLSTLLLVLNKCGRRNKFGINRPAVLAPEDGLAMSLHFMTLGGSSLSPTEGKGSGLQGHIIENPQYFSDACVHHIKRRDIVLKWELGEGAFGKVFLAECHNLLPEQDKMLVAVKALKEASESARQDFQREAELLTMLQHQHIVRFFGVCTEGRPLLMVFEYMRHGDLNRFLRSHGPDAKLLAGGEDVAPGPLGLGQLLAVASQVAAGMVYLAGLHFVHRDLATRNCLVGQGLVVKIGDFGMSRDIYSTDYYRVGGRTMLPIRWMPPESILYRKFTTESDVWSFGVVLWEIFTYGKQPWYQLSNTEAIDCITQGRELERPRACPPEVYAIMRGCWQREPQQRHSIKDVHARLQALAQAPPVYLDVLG
assay: 125I-NGF binding to E25 transfectants, with dose response and saturation studies
test-conditions: analog ~40 μM; mean ±2 SEM
Protocol: All cells were cultured as described. PC12 pheochromocytoma cells expressing rat p140 trkA and p75 LNGFR (American Type Culture Collection, 7th edition, 1992, Catalog of cell lines and hybridomas, R. Hay Editor, accession No. CRL 1721) were grown in DMEM supplemented with 20% Fetal Bovine Serum (FBS), 10% Horse serum, and antibiotics. PC12 cells used for experiments were grown on collagen coated dishes. […] Percent inhibition was determined by applying the following formula: [formula] […]
Measured % INHIBITION of 125I-NGF binding, E25 (trkA) by item

Use these answered entries as a reference point.
{"substance": "T T D E K Q A A W (TTDEKQAAW) [L(91-99), linear 91-99 control]", "result": "2.1 ± 8.5%"}
{"substance": "A T D I K G K E V (ATDIKGKEV) [L(28-36), linear 28-36 control]", "result": "6.4 ± 12.4%"}
{"substance": "R A S N P V E S G (RASNPVESG) [L(59-67), linear 59-67 control]", "result": "-9.5 ± 7.5%"}

Continue with the next substance.
Given item V N I N N S V F (VNINNSVF) [L(42-49), linear 42-49 control] , the value recorded as its % INHIBITION of 125I-NGF binding, E25 (trkA) is -16.0 ± 15.1%

Taken from patent US6017878A.
